System: male dd strain mice
Experiment: Acute toxicity (minimum lethal dose)
Format: in vivo
Conditions: oral, mortality seven days after administration
Protocol: The present compound was administered orally (p.o. 300 mg/kg) or intraperitoneally (i.p. 100 mg/kg) to several groups of male dd strain mice weighing 19 to 21 g (each group consisting of three mice), and MLD (minimum lethal dose) was determined by observing the mortality seven days after administration.
Assign Acute Toxicity (MLD) PO to each entry below.

compound	Acute Toxicity (MLD) PO
CN1CCN(C2c3ccccc3COc3ccc(C(=O)O)cc32)CC1 (stereo not shown) [Compound 3]	> 300 mg/kg
CN(C)CCSC1c2ccccc2COc2ccc(C#N)cc21 (stereo not shown)	> 300 mg/kg
CN1CCN(C2c3ccccc3COc3ccc(-c4nnn[nH]4)cc32)CC1 (stereo not shown)	> 300 mg/kg

We next turn to a different compound, shown below.
Ask: Specify the recorded Acute Toxicity (MLD) PO for CN(C)CCNC1c2ccccc2COc2ccc(C(N)=O)cc21 (stereo not shown) , system: male dd strain mice.
Result: 300 mg/kg

Origin of the recorded values: patent US4596804A
